Molecular target: Ubiquitin carboxyl-terminal hydrolase 7 (Homo sapiens) (UniProt Q93009)
Sequence (Q93009 whole entry, looked up): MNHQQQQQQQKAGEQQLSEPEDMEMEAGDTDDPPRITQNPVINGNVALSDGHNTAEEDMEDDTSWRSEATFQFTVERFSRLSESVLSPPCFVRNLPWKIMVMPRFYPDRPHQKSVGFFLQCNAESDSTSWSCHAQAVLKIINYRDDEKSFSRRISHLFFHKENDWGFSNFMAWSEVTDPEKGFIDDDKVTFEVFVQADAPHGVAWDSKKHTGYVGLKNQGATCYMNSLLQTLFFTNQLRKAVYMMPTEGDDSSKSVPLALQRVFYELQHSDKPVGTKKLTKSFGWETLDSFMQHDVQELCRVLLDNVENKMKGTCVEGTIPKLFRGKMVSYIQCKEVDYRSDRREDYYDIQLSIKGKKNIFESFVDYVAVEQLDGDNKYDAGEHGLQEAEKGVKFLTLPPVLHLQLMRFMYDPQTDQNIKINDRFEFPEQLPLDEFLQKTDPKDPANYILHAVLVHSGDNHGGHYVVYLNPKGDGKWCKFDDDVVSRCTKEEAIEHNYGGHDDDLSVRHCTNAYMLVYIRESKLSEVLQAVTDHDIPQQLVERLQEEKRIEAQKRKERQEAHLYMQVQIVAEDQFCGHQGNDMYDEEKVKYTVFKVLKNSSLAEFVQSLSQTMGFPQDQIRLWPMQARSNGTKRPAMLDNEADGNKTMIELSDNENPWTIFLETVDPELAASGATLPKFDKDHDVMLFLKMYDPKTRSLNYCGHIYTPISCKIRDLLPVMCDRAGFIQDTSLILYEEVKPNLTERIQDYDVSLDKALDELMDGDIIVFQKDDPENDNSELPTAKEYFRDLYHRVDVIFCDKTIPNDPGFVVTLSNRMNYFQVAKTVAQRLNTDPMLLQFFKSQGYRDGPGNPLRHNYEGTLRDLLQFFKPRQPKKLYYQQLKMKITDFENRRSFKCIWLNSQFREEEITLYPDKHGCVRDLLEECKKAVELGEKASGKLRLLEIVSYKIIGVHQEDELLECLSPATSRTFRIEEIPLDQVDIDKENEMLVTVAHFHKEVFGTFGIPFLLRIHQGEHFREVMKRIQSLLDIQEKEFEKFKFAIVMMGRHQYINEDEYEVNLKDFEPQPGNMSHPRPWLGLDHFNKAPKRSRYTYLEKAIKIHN
Assay: Ubiquitin-specific protease 7 DUB inhibitors, concentration-effect, biochemical, validation of primary hits (AID 1645861)
Conditions: purified USP7, Ub-rhodamine cleavage fluorescence, 60 min
Activity calls are given as the source filed them.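 Rule for the calls: active = compounds whose peak USP7 inhibition across the dose series reached 30% or more; inactive = the rest.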
Output constraint: value belongs to active, inactive

>>> category("O=C(NCc1ccc(F)cc1)c1cccc(Nc2nc3ccccc3n3cnnc23)c1")
"inactive"
>>> category("Cc1ccc2[nH]c(=O)c(-c3nc4ccccn4c3NCc3ccccc3)cc2c1")
"inactive"
>>> category("COc1ccccc1NC(=O)c1nc(-c2cn(-c3cccc(F)c3)nn2)no1")
"inactive"
>>> category("O=C(Nc1ccccc1C(=O)O)c1ccc(CSCc2ccccc2)cc1")
"inactive"
>>> category("Cc1ccc(-n2cc(C(=O)NCCCc3ccccc3)nn2)cc1")
"inactive"

Hey, what did the test say about O=C(OC1CSc2nc3ccccc3n2C1)c1ccc([N+](=O)[O-])o1 (centres undefined) ? inactive

---

Biological target: Ubiquitin carboxyl-terminal hydrolase 7 (Homo sapiens)
Assay: Ubiquitin-specific protease 7 DUB inhibitors, concentration-effect, biochemical, validation of primary hits (AID 1645861)
Conditions: purified USP7, Ub-rhodamine cleavage fluorescence, 60 min
The source made the active and inactive calls.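 Rule for the calls: active = compounds whose peak USP7 inhibition across the dose series reached 30% or more; inactive = the rest.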
Output constraint: value belongs to true (1) for active, false (0) for inactive

Here's what some known entries look like.
>>> category("CCCCCCCc1cc(OC(=O)c2c(CCCCCCC)cc(O)cc2O[C@@H]2O[C@H](CO)[C@H](O)[C@H](O)[C@H]2O)cc(O)c1C(=O)O")
"true (1)"
>>> category("CC(C)CCCCCCCCCCC(=O)N(C)[C@H](CO)C(=O)N[C@H](C)C(=O)NCC(=O)N(C)C1C(=O)N[C@@H](C)C(=O)NC(C(=O)O)Cc2ccc(O)c(c2)-c2cc1ccc2O (stereo partly drawn)")
"false (0)"
>>> category("O=C1NC(=O)/C(=C/c2ccc(OC(=O)c3ccc(Cl)cc3Cl)cc2)N1")
"false (0)"

Hey, what did the test say about CCOC(=O)C1CCN(Cc2cc(=O)oc3cc(O)c(O)cc23)CC1 ? true (1)

Hey, what did the test say about COc1ccccc1N1CCN(C(=O)c2ccc3c(=O)n(CCc4ccccc4)c(=O)[nH]c3c2)CC1 ? false (0)

Hey, what did the test say about CC[C@@H](C(=O)[C@@H](C)[C@@H](O)[C@H](C)CCc1ccc(C)c(O)c1C(=O)O)[C@@H]1O[C@](CC)([C@H]2CC[C@](O)(CC)[C@H](C)O2)C[C@@H]1C ? true (1)
